- Target entity: T1, ACKR3 D90N-YFP (UniProt P25106 1-362, D90N)
- T1 construct: ACKR3 (CXCR7) with D90N (Ballesteros-Weinstein 2.50), made by PCR in ACKR3-YFP; also called D90^2.50N; source: HEK293, transiently transfected (polyethyleneimine), on or in cells; not shown: YFP, C-terminal, kept
- T1 sequence (P25106 whole entry D90N): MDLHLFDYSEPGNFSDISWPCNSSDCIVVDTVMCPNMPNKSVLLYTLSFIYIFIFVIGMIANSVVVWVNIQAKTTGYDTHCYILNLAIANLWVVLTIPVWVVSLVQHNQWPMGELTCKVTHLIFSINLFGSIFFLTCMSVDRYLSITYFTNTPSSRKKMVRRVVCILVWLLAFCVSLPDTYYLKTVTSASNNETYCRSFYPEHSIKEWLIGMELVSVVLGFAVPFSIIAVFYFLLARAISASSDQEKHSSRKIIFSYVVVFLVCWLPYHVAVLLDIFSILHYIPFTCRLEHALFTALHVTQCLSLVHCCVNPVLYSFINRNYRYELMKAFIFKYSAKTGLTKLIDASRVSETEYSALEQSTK
- Method notes: radioligand binding; HEK293 cells expressing ACKR3-YFP or mutants, pretreated 5 min at 37 °C with 100 μM phenylarsine oxide; 50 pM 125I-CXCL12 tracer in 50 mM HEPES pH 7.4, 5 mM MgCl2, 1 mM CaCl2, 0.2% BSA, with or without unlabeled CXCL12 or CXCL11, 30 min at 37 °C; bound label counted in a γ counter; IC50 taken as proxy for ligand affinity
- Test parameters: one partner purified
Assay endpoint: IC50

Ask: Assign IC50 to the following record: CXCL11 (unlabeled recombinant chemokine) (ligand, human, UniProt O14625 22-94, looked up, chemokine CXCL11 (I-TAC); called human CXCL11 in the text on scavenging by MEFs; also called I-TAC; unlabeled CXCL11; source: recombinant; gift from Amanda Nevins and Brian Volkman or from PeproTech Inc) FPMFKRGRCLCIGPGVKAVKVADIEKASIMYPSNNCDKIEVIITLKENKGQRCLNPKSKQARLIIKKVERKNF
Result: 0.0359 µM
